Test system: erythroid progenitor cells (EPCs)
protocol summary: Fetal hemoglobin (HbF) ELISA in day 7 erythroid progenitor cells;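 further: for fetal hemoglobin induction normalized to vehicle-treated cells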
Format: cell-based, human
assay setup: Homo sapiens, Erythroid progenitor cell, HbF ELISA, day 7 EPCs, 5 days; read-out: EPC ELISA (pEC50 category) (converted)
measurement name: EC50

Examples with their reported EC50 follow.
compound	study target	EC50
CCc1c(C#N)c(SCc2ccc(CN)cc2)nc(N2CCCN(C)CC2)c1C#N	erythroid progenitor cells (EPCs)	> 31600 nM
CCc1c(C#N)c(SC(C(N)=O)c2ccccc2)nc(N2CC[C@@H](NC(=O)OC(C)(C)C)[C@@H](F)C2)c1C#N (single isomer, unassigned)	erythroid progenitor cells (EPCs)	< 316 nM
CCc1c(C#N)c(SCc2ccc(N(C)S(C)(=O)=O)cc2)nc(N(C)CCN2CCCC2)c1C#N	erythroid progenitor cells (EPCs)	< 316 nM

Here is the next item to consider.
[ask] State the recorded EC50 for this entry: CCc1c(C#N)c(SC(C(N)=O)c2ccccc2)nc(N2CCC(C(N)=O)C2)c1C#N (stereo not shown)
[reply] 1000 to 31600 nM

###

System: erythroid progenitor cells (EPCs)
protocol summary: Fetal hemoglobin (HbF) ELISA in day 7 erythroid progenitor cells;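 further: for fetal hemoglobin induction normalized to vehicle-treated cells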
Assay type: cell-based, human
assay setup: Homo sapiens, Erythroid progenitor cell, HbF ELISA, day 7 EPCs, 5 days; read-out: EPC ELISA (pEC50 category) (converted)
measurement name: EC50

compound	study target	EC50
CCc1c(C#N)c(SC(C(N)=O)c2ccccc2)nc(N2CC(CC(N)=O)C2)c1C#N (stereo not drawn) [Example 330]	erythroid progenitor cells (EPCs)	1000 to 31600 nM
CCc1c(C#N)c(SCc2ccc(CNC(C)=O)cc2)nc(N2CCC(OC(=O)[C@@H](N)C(C)C)CC2)c1C#N [Example 289]	erythroid progenitor cells (EPCs)	1000 to 31600 nM
CCc1c(C#N)c(SCc2ccc(OS(C)(=O)=O)cc2)nc(N2CCC(N)CC2)c1C#N [Example 626, methanesulfonate 2,2,2-trifluoroacetate]	erythroid progenitor cells (EPCs)	< 316 nM
CCc1c(C#N)c(S[C@H](C(N)=O)c2ccccc2)nc(N2CC[C@H](N)[C@H](F)C2)c1C#N [Example 540, 2,2,2-trifluoroacetate]	erythroid progenitor cells (EPCs)	< 316 nM
[2H]C(Sc1nc(N(C)C)c(C#N)c(CC)c1C#N)(C(N)=O)c1ccccc1 (stereo not drawn) [Example 305]	erythroid progenitor cells (EPCs)	316 to 1000 nM
CCc1c(C#N)c(SC(C(N)=O)c2ccccc2)nc(N2CCC(OP(=O)(O)O)CC2)c1C#N (stereo not drawn) [Example 155]	erythroid progenitor cells (EPCs)	> 31600 nM
CCc1c(C#N)c(SC(C(N)=O)c2ccccc2)nc(N(C)CCN(CC)CC)c1C#N (stereo not drawn) [Example 515]	erythroid progenitor cells (EPCs)	< 316 nM
CCc1c(C#N)c(SC(C(N)=O)c2ccccc2)nc(N(C)CC(=O)NCC2(CO)CC2)c1C#N (stereo not drawn) [Example 673]	erythroid progenitor cells (EPCs)	< 316 nM

Please turn your attention to the following entry.
[ask] Endpoint output: EC50 of N#Cc1c(SC(C(N)=O)c2ccccc2)nc(N2CCCC(NCC(=O)O)C2)c(C#N)c1C1CC1 (stereo not drawn) [Example 175] . Value?
[reply] > 31600 nM

Hello, the source for this data is patent US10975056B2, in case you need it.
